# PROTOCOL TEXT: Determination of Ester Half-lives (conversion of ester to alcohol in phosphate buffer at 37°, HPLC)
# Type: physicochemical
# ASSAY SETUP: pH 7.4, 37°, read-out: t1/2 (time required for 50% conversion of ester to alcohol)
Structures can show the parent of a compound that is named as a salt.
ENDPOINT NAME: half-life (min)
Write the answer as a number in min, unit excluded.

>>> value("O=C(CNCCNCCC1CCCCC1)O[C@H]1C[C@H](n2cc(Br)c(=O)[nH]c2=O)O[C@@H]1CO")
29
>>> value("CCNCCNCC(=O)O[C@H]1C[C@H](n2cc(Br)c(=O)[nH]c2=O)O[C@@H]1CO [Example 1, Dihydrochloride]")
26

Attention now shifts to the item below.
(Q) For the compound O=C(CNCCNCCC1CCCCC1)OC[C@H]1O[C@@H](n2cc(Br)c(=O)[nH]c2=O)C[C@@H]1O [Example 3, Dihydrochloride] , give its reported half-life.
(A) 22

====

# PROTOCOL TEXT: Determination of Ester Half-lives (conversion of ester to alcohol in phosphate buffer at 37°, HPLC)
# Assay type: physicochemical
# ASSAY SETUP: pH 6.8, 37°, read-out: t1/2 (time required for 50% conversion of ester to alcohol)
# Method: Determination of Ester Half-lives Two mL of phosphate buffer preheated to 37° were added to approximately 0.5 mg of the ester dihydrochloride. […] Unreacted ester and 5-halo-2'-deoxyuridine concentrations were determined by HPLC analysis on a C-18 reverse phase column using a gradient of 98% pH 2.4 phosphoric acid--2% acetonitrile to 70% pH 2.4 phosphoric acid--30% acetonitrile over 10 minutes. […]
Counter-ions that a name gives are not always drawn.
ENDPOINT NAME: half-life

Consider the following illustrative entries.
>>> value("O=C(CNCCNCCC1CCCCC1)OC[C@H]1O[C@@H](n2cc(Br)c(=O)[nH]c2=O)C[C@@H]1O [Example 3, Dihydrochloride]")
"35 min"
>>> value("CCNCCNCC(=O)O[C@H]1C[C@H](n2cc(Br)c(=O)[nH]c2=O)O[C@@H]1CO [Example 1, Dihydrochloride]")
"32 min"

Alright, here's another compound for you.
(Q) Supply reported half-life belonging to this compound: O=C(CNCCNCCC1CCCCC1)O[C@H]1C[C@H](n2cc(Br)c(=O)[nH]c2=O)O[C@@H]1CO
(A) 47 min
